Quick record of Ki values for Carbonic anhydrase 1 (Homo sapiens, UniProt P00915).

{"compound": "[O-][Cl+3]([O-])([O-])O [SODIUM PERCHLORATE]", "Ki": "> 200 mM"}
{"compound": "O=S([O-])O.[Na+] [SODIUM BISULFITE]", "Ki": "18 mM"}

// next item, Ki requested
Q: Quickly give me recorded Ki for O=[N+]([O-])[O-].[Na+] [SODIUM NITRATE]
Result: 7 mM

Entry source: ChEMBL document CHEMBL1687944
